Attribution: ChEMBL document CHEMBL1147720

Target: Interleukin-1 receptor-associated kinase 4 (Homo sapiens, UniProt Q9NWZ3)
Sequence (Q9NWZ3 whole entry): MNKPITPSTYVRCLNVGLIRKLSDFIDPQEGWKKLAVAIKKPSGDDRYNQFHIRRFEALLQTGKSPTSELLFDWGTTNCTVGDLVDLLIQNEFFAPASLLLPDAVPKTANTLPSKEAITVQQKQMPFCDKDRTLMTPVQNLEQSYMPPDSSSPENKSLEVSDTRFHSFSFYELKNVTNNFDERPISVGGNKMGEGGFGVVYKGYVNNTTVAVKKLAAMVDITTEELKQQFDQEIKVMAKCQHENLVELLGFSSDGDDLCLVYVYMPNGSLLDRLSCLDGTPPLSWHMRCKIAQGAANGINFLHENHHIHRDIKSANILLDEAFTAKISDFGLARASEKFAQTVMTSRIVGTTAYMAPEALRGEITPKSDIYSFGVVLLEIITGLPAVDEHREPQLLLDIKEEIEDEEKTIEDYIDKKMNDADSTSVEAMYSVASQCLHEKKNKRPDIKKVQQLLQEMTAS
Task for the reader: assign each of the following compounds its reported IC50.

Query string: Find the recorded IC50 belonging to Cc1cc2nc(NC(=O)c3cccc([N+](=O)[O-])c3)[nH]c2cc1C and report it.
Result string: 8 µM

Query string: Reported IC50 for O=C(Nc1nc2ccccc2n1CCN1CCOCC1)c1cccc([N+](=O)[O-])c1 : what is it?
Result string: 0.2 µM

Query string: Which IC50 is reported for this compound? CCCCn1c(NC(=O)c2cccc(Cl)c2)nc2ccccc21
Result string: 30 µM

Query string: Could you tell me which IC50 is on file for C=CCn1c(NC(=O)c2cccc([N+](=O)[O-])c2)nc2ccccc21 ?
Result string: 1 µM

Query string: Recorded IC50 for CCCCCn1c(NC(=O)c2cccc([N+](=O)[O-])c2)nc2ccccc21 , please?
Result string: 20 µM

Query string: Field request: IC50 | item: CCCCn1c(NC(=O)c2ccc(Cl)c(Cl)c2)nc2ccccc21
Result string: 3 µM

Query string: Request the reported IC50 associated with O=C(Nc1nc2ccccc2[nH]1)c1cccc([N+](=O)[O-])c1
Result string: 4 µM

Query string: Entry COCCn1c(NC(=O)c2cccc([N+](=O)[O-])c2)nc2ccccc21 : reported IC50 = ?
Result string: 1 µM

Query string: Endpoint output: IC50 of COC(=O)c1ccc2[nH]c(NC(=O)c3cccc([N+](=O)[O-])c3)nc2c1 . Value?
Result string: 25 µM

Query string: Name the recorded IC50 for CCOC(=O)Cn1c(NC(=O)c2cccc([N+](=O)[O-])c2)nc2ccccc21 .
Result string: 0.4 µM

Query string: # input compound: O=C(Nc1nc2ccccc2[nH]1)c1ccc(F)c([N+](=O)[O-])c1 ; wanted: its IC50
Result string: 6.5 µM

Query string: // query IC50 value for entry O=C(Nc1nc2cc(F)c(F)cc2[nH]1)c1cccc([N+](=O)[O-])c1
Result string: 30 µM

Query string: Recorded IC50 for O=C(Nc1nc2ccccc2n1CCO)c1cccc([N+](=O)[O-])c1 , please?
Result string: 0.4 µM

Query string: Tell me the measured IC50 of CCOCCn1c(NC(=O)c2cccc([N+](=O)[O-])c2)nc2ccccc21 , please.
Result string: 2 µM

Query string: # input compound: CC(C)n1c(NC(=O)c2cccc([N+](=O)[O-])c2)nc2ccccc21 ; wanted: its IC50
Result string: 1 µM

Query string: Tell me the measured IC50 of O=C(Nc1nc2ccc(F)cc2[nH]1)c1cccc([N+](=O)[O-])c1 , please.
Result string: 4.5 µM

Query string: Given COc1ccc2nc(NC(=O)c3cccc([N+](=O)[O-])c3)[nH]c2c1 , state its recorded IC50.
Result string: 1.5 µM

Query string: I am curious: what IC50 value has been reported for CCN(CC)CCn1c(NC(=O)c2cccc([N+](=O)[O-])c2)nc2ccccc21 ?
Result string: 3 µM

Query string: // lookup IC50 for CN(C(=O)c1cccc([N+](=O)[O-])c1)c1nc2ccccc2n1C1CCOC1=O (configuration not stated)
Result string: > 30 µM

Query string: Consider the compound shown here: O=C(Nc1nc2ccccc2n1CC1CCCO1)c1cccc([N+](=O)[O-])c1 (configuration not stated) What is its recorded IC50?
Result string: 0.5 µM

Query string: Please look up its IC50: CCOC(=O)CCn1c(NC(=O)c2cccc([N+](=O)[O-])c2)nc2ccccc21
Result string: 1 µM

Query string: Please report the recorded IC50 for C=CCN(C(=O)c1cccc([N+](=O)[O-])c1)c1nc2ccccc2n1CC=C .
Result string: > 30 µM

* * *

tested on: HeLa; assay: Antiproliferative activity against human HeLa cell line after 72 hrs; assay type: functional; settings: read-out: ED50 (the source's name)
measurement.type: EC50

Query string: Which measured EC50 value corresponds to CCOC(=O)Cn1c(NC(=O)c2cccc([N+](=O)[O-])c2)nc2ccccc21 ?
Result string: > 30 µM

Query string: Give the measured EC50 of O=C(Nc1nc2ccccc2n1CCN1CCOCC1)c1cccc([N+](=O)[O-])c1 .
Result string: > 30 µM

* * *

Kindly supply the reported pIC50 values for the records listed here.
As a rule, pIC50 stands for the negative log10 of the concentration, concentration in M.

Query string: Give the reported pIC50 for O=C(Nc1nc2ccccc2n1CCN1CCOCC1)c1cccc([N+](=O)[O-])c1 (system: Interleukin-1 receptor-associated kinase 1 (Homo sapiens, UniProt P51617)).
Sequence (P51617 whole entry): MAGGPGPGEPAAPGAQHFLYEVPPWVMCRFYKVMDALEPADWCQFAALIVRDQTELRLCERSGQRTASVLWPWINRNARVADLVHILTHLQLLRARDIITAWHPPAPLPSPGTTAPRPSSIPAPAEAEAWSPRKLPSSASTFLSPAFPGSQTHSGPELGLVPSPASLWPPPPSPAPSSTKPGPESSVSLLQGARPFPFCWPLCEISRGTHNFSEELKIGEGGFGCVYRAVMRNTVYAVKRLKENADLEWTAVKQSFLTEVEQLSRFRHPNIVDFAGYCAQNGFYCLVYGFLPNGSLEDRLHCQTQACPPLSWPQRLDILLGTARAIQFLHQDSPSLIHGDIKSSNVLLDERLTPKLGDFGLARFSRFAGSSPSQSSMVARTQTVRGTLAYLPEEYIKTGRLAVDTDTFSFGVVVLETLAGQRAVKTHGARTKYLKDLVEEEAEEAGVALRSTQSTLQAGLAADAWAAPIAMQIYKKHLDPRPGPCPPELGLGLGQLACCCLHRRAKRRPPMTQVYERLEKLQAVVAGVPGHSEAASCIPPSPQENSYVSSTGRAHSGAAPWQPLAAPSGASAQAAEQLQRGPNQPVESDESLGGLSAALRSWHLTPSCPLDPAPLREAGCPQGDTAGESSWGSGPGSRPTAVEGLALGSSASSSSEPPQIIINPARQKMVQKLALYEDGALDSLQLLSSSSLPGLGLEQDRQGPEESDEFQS
Result string: 6.52

Query string: Interleukin-1 receptor-associated kinase 1 (Homo sapiens, UniProt P51617) / pIC50 / CCOC(=O)Cn1c(NC(=O)c2cccc([N+](=O)[O-])c2)nc2ccccc21 : value?
Result string: 6.12

* * *

For each entry below, report its inhibition value.
biological target: Interleukin-1 receptor-associated kinase 4 (Homo sapiens); assay: Inhibition of IRAK4 at 30 uM
The reply must contain the numeric value and, after it, the unit.

Query string: # input compound: O=C(O)Cn1c(NC(=O)c2cccc([N+](=O)[O-])c2)nc2ccccc21 ; wanted: its inhibition
Result string: 38%

Query string: State the recorded inhibition for this entry: O=C(Nc1nc2ccc[nH]c-2n1)c1cccc([N+](=O)[O-])c1
Result string: 39%

Query string: Entry O=[N+]([O-])c1cccc(S(=O)(=O)Nc2nc3ccccc3[nH]2)c1 has what inhibition?
Result string: 45%

Query string: Recorded inhibition of O=C(Nc1nc2c([N+](=O)[O-])cccc2[nH]1)c1cccc([N+](=O)[O-])c1 , please.
Result string: 25%

Query string: // returns reported inhibition for input CCCCn1c(NC(=O)c2ccc([N+](=O)[O-])cc2)nc2ccccc21
Result string: 8%

Query string: # inhibition lookup, item O=[N+]([O-])c1cccc(CNc2nc3ccccc3[nH]2)c1
Result string: 8%

Query string: I am curious: what inhibition value has been reported for O=C(Nc1nc2ccccc2[nH]1)c1ccccc1 ?
Result string: 11%

Query string: Fill in: inhibition of O=C(Nc1nc2cc([N+](=O)[O-])ccc2[nH]1)c1cccc([N+](=O)[O-])c1 is ___
Result string: 29%

Query string: State the recorded inhibition for this entry: O=C(Nc1nc2cc(Cl)c(Cl)cc2[nH]1)c1cccc([N+](=O)[O-])c1
Result string: 10%

Query string: What does the data say about its inhibition? Entry: O=C(Nc1cccc([N+](=O)[O-])c1)Nc1nc2ccccc2[nH]1
Result string: 15%

Query string: Field request: inhibition | item: O=C(Nc1nc2ccccc2s1)c1cccc([N+](=O)[O-])c1
Result string: 11%

Query string: Can you look up the measured inhibition of O=C(Nc1nc2c(F)c(F)ccc2[nH]1)c1cccc([N+](=O)[O-])c1 for me?
Result string: 24%
